Reference source: patent US7906507B2

# System: cloned human GLP-1 receptor (Homo sapiens)
# Protocol description: Functional cell-based assay: cAMP functional assay
Experimental endpoint: pEC50
Give bare numbers, as −log10 of the molar value.

Molecule	pEC50
N#Cc1ccc(-c2ccc(C[C@H](NC(=O)[C@@H]3Cc4cc5c(cc4CN3CC#Cc3ccccc3)OC(c3ccc(OCc4ccc(Cl)c(Cl)c4)cc3)C(=O)N5)C(=O)O)cc2)cc1 (some centres unmarked) [Example 7]	6.32
N#Cc1ccc(-c2ccc(C[C@H](NC(=O)[C@@H]3Cc4cc5c(cc4CN3Cc3cccs3)OC(c3ccc(OCc4ccc(Cl)c(Cl)c4)cc3)C(=O)N5)C(=O)O)cc2)cc1 (some centres unmarked) [Example 40]	5.92
Cc1noc(C)c1S(=O)(=O)N1Cc2cc3c(cc2C[C@H]1C(=O)N[C@@H](Cc1ccc(-c2ccc(C#N)cc2)cc1)C(=O)O)N(C)C(=O)C(c1ccc(OCc2ccc(Cl)c(Cl)c2)cc1)O3 (some centres unmarked) [Example 96]	6.44

Please give pEC50 for each item listed below.
1. CC[C@@H](c1ccccc1)N1Cc2cc3c(cc2C[C@H]1C(=O)N[C@@H](Cc1ccc(-c2ccc(F)cc2)cc1)C(=O)O)N(C)C(=O)[C@H](c1ccc(OCc2ccc(Cl)c(Cl)c2)cc1)O3 [Example 95]
2. CC[C@@H](c1ccccc1)N1Cc2cc3c(cc2C[C@H]1C(=O)N[C@@H](Cc1ccc(-c2ccc(Cl)cc2)cc1)C(=O)O)N(C)C(=O)[C@@H](c1ccc(OCc2ccc(Cl)c(Cl)c2)cc1)O3 [Example 90]

stdout:
1: 6.44; 2: 5.91

* * *

# System: cloned human GLP-1 receptor (Homo sapiens, UniProt P43220)
# Construct: expressed in transfected cells; host or cells: CHO or HEK-293 cells
# Sequence (P43220 24-463): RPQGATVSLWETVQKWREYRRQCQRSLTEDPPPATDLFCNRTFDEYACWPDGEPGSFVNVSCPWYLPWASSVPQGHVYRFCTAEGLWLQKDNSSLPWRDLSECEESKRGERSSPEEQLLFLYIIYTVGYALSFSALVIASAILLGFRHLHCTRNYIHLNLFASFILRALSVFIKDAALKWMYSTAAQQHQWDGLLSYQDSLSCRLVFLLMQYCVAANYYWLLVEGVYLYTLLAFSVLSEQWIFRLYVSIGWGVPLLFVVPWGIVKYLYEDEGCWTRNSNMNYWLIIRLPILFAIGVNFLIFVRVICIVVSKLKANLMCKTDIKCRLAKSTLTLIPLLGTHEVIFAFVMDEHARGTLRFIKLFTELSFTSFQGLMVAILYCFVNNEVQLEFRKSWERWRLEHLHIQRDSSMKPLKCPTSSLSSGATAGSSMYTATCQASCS
# Protocol description: Functional cell-based assay: cAMP functional assay
# Conditions: 0.5 h; percentage relative to maximal GLP-1-induced cAMP accumulation; na = not active in the assay; read-out: % activation
Classification field: enter yes (1) for Emax values not below 40%, no (0) for values below it.

Sample answers from the record:
Compound	Class
N#Cc1ccc(-c2ccc(C[C@H](NC(=O)[C@@H]3Cc4cc5c(cc4CN3C(=O)c3ccccc3)OC(c3ccc(OCc4ccc(Cl)cc4)cc3)C(=O)N5)C(=O)O)cc2)cc1 (some centres unmarked) [Example 60]	yes (1)
O=C1Nc2cc3c(cc2OC1c1ccc(OCc2ccc(Cl)c(Cl)c2)cc1)CN(C(=O)c1ccccc1)[C@H](C(=O)N[C@@H](Cc1ccc(-c2ccc(Cl)cc2)cc1)C(=O)O)C3 (some centres unmarked) [Example 84]	yes (1)
N#Cc1ccc(-c2ccc(C[C@H](NC(=O)[C@@H]3Cc4cc5c(cc4CN3S(=O)(=O)c3cccs3)OC(c3ccc(OCc4ccc(Cl)c(Cl)c4)cc3)C(=O)N5)C(=O)O)cc2)cc1 (some centres unmarked) [Example 32]	no (0)
CC[C@@H](c1ccccc1)N1Cc2cc3c(cc2C[C@H]1C(=O)N[C@@](C)(Cc1ccc(-c2ccc(C#N)cc2)cc1)C(=O)O)N(C)C(=O)C(c1ccc(OCc2ccc(Cl)c(Cl)c2)cc1)O3 (stereo in doubt) [Example 97]	no (0)

Now look at this one.
stdin: For this compound, is measured Emax 40% or higher? CC(c1ccccc1)N1Cc2cc3c(cc2C[C@H]1C(=O)N[C@@H](Cc1ccc(-c2ccc(C#N)cc2)cc1)C(=O)O)N(C)C(=O)C(c1ccc(OCc2ccc(Cl)c(Cl)c2)cc1)O3 (some centres unmarked) [Example 80]
stdout: no (0)
